# credit: paper PMC10878790

Conditions: mouse, in vivo, iv, 5 mg/kg
Measurement kind: Cmax (ng/mL)
Give the quantity in ng/mL, number only.

get_value(item= `CC[C@@H](C)[C@@H](NC(=O)[C@@H](C)NC(=O)[C@@H](CC(C)C)NC(C)=O)C(=O)N[C@H](C)C(=O)N[C@@H](C(=O)N[C@H](CCCCN)C(N)=O)C(C)C` , readout=Cmax) returns 3570

---

Assay: Mouse liver microsome stability
Details: male, ICR/CD-1, mouse, microsomes, pH 7.5, Mouse Liver Microsome T1/2, 2 μM peptide
Method: An NADPH-regenerating system (1.7 mg/ml NADP, 7.8 mg/ml glucose-6-phosphate, 6 U/ml glucose-6-phosphate dehydrogenase in 2% w/v NaHCO3/10 mm MgCl2) was added for analysis of Phase I metabolism after heating both the regenerating solution and the sample tubes to 37 °C for 5 min in a 37 °C shaking water bath. […] The supernatant was analyzed by LC-MS/MS. […]
Measurement kind: half-life at 2 μM (min)
Could you give me the number in min? Just the number is fine.

The recorded half-life at 2 μM for entry Ac-RPPCVIL-NH2 [RP-7] equals 52.3

---

Assay: Pharmacokinetic studies in CD1 mice
Settings: mouse, in vivo, iv, 5 mg/kg
Square brackets hold non-standard residues; d marks the D form. Peptide text beside a SMILES is read from it.
Measurement kind: clearance

Summary for this molecule, CC[C@@H](C)[C@@H](NC(=O)[C@H](NC(=O)[C@@H](CS)NC(=O)[C@H]1CCCN1C(=O)[C@H]1CCCN1C(=O)[C@@H](CCCNC(=N)N)NC(C)=O)C(C)C)C(=O)N[C@H](CC(C)C)C(N)=O [D-RP-7] (Ac-[dR][dP][dP][dC][dV][dI][dL]-NH2) : clearance is 1420 mL/min/kg

---

Test: Mouse liver microsome stability
Conditions: male, Institute of Cancer Research/CD-1, mouse, microsomes, pH 7.5
Square brackets hold non-standard residues; d marks the D form. Peptide text beside a SMILES is read from it.
Measurement kind: remaining at 2 h, 2 μM
The reply should consist of the numeric value with the unit placed after it.

CC[C@@H](C)[C@@H](NC(=O)[C@H](NC(=O)[C@@H](CS)NC(=O)[C@H]1CCCN1C(=O)[C@H]1CCCN1C(=O)[C@@H](CCCNC(=N)N)NC(C)=O)C(C)C)C(=O)N[C@H](CC(C)C)C(N)=O [D-RP-7] (Ac-[dR][dP][dP][dC][dV][dI][dL]-NH2)
64.4%

Now for the compound whose remaining at 2 h, 2 μM we want.
remaining at 2 h, 2 μM reported for this compound `CC[C@@H](C)[C@@H](NC(=O)[C@@H](C)NC(=O)[C@@H](CC(C)C)NC(C)=O)C(=O)N[C@H](C)C(=O)N[C@@H](C(=O)N[C@H](CCCCN)C(N)=O)C(C)C` : 100%

---

Assay: Mouse liver microsome stability
Settings: male, Institute of Cancer Research/CD-1, mouse, microsomes, pH 7.5
Measurement kind: remaining at 2 h, 2 μM (%)
Write down the numeric answer in % and omit the unit.

The substance identified as Ac-RPPCVIL-NH2 [RP-7] registered its remaining at 2 h, 2 μM at 17.7

---

System: NIH-3T3
Assay type: cell-based, murine
Settings: MTT, 48 hours; normal cells
Ends that are not written are not given here.
Measurement kind: IC50

Ac-SRPPCVIL-NH2 [SR-8]
> 600 µM
LASAVK [LA-6, LASAVK]
> 600 µM
Ac-LAKAVI-NH2 [LA3IK-SCR]
> 600 µM
Ac-RPPCVIL-NH2 [RP-7]
221 µM

In the following, a different substance is considered.
# lookup: Ac-RPPLVIC-NH2 [RP-7 SCR] on NIH-3T3, IC50 = > 600 µM

---

Assay: Pharmacokinetic studies in CD1 mice
Settings: mouse, in vivo, iv, 5 mg/kg
Square brackets hold non-standard residues; d marks the D form. Peptide text beside a SMILES is read from it.
Measurement kind: Cmax (ng/mL)
The answer is to be given in ng/mL; state only the numeric part.

For this compound ( CC[C@@H](C)[C@@H](NC(=O)[C@H](NC(=O)[C@@H](CS)NC(=O)[C@H]1CCCN1C(=O)[C@H]1CCCN1C(=O)[C@@H](CCCNC(=N)N)NC(C)=O)C(C)C)C(=O)N[C@H](CC(C)C)C(N)=O [D-RP-7] (Ac-[dR][dP][dP][dC][dV][dI][dL]-NH2) ), measured Cmax is 48

---

Assay: Mouse liver microsome stability
Conditions: male, ICR/CD-1, mouse, liver microsomes, pH 7.5
Measurement kind: half-life at 2 μM

Per the records, this compound ( `CC[C@H](C)[C@H](NC(=O)[C@H](C)NC(=O)[C@H](CC(C)C)NC(C)=O)C(=O)N[C@@H](C)C(=O)N[C@H](C(=O)N[C@@H](CCCCN)C(N)=O)C(C)C` ) has half-life at 2 μM equal to > 120 min

---

Experiment: Pharmacokinetic studies in CD1 mice
Settings: mouse, in vivo, iv, 5 mg/kg
Square brackets hold non-standard residues; d marks the D form. Peptide text beside a SMILES is read from it.
Measurement kind: half-life

Record summary for CC[C@@H](C)[C@@H](NC(=O)[C@H](NC(=O)[C@@H](CS)NC(=O)[C@H]1CCCN1C(=O)[C@H]1CCCN1C(=O)[C@@H](CCCNC(=N)N)NC(C)=O)C(C)C)C(=O)N[C@H](CC(C)C)C(N)=O [D-RP-7] (Ac-[dR][dP][dP][dC][dV][dI][dL]-NH2) : reported half-life = 830 min

---

Assay: Pharmacokinetic studies in CD1 mice
Conditions: female, CD1, mouse, in vivo, iv, 5 mg/kg
Square brackets hold non-standard residues; d marks the D form. Peptide text beside a SMILES is read from it.
Measurement kind: Tmax (min)
State the answer as a number, implicitly in min.

Reported Tmax ( CC[C@@H](C)[C@@H](NC(=O)[C@H](NC(=O)[C@@H](CS)NC(=O)[C@H]1CCCN1C(=O)[C@H]1CCCN1C(=O)[C@@H](CCCNC(=N)N)NC(C)=O)C(C)C)C(=O)N[C@H](CC(C)C)C(N)=O [D-RP-7] (Ac-[dR][dP][dP][dC][dV][dI][dL]-NH2) ) = 4.8

---

Conditions: mouse, in vivo, iv, 5 mg/kg
Measurement kind: clearance (mL/min/kg)
All answers are understood in mL/min/kg, so give the number only.

Value of measured clearance for the entry `CC[C@@H](C)[C@@H](NC(=O)[C@@H](C)NC(=O)[C@@H](CC(C)C)NC(C)=O)C(=O)N[C@H](C)C(=O)N[C@@H](C(=O)N[C@H](CCCCN)C(N)=O)C(C)C` : 24.5

---

This section presents substances with their documented IC50 values.
Tested on: MDA-MB-231
Format: cell-based
Details: MTT, 48 hours
Report the value in µM with no unit label.

Ac-RPPLVIC-NH2 [RP-7 SCR]
156

// IC50 lookup, substance = Ac-SRPPCVIL-NH2 [SR-8] , result: 528

Reported IC50 of Ac-LAKAVI-NH2 [LA3IK-SCR] : 243

Kindly note the recorded IC50 for Ac-RPPCVIL-NH2 [RP-7] , which is 139

---

Assay: in vivo
Conditions: female, CD1, mouse, iv, 5 mg/kg
Measurement kind: MRT (h)
Record the value in h, omitting the unit from your answer.

The reported value for `CC[C@@H](C)[C@@H](NC(=O)[C@@H](C)NC(=O)[C@@H](CC(C)C)NC(C)=O)C(=O)N[C@H](C)C(=O)N[C@@H](C(=O)N[C@H](CCCCN)C(N)=O)C(C)C` in terms of MRT is 1.03

---

Catalogue of Vd readings, one per entry.
Test: Pharmacokinetic studies in CD1 mice
Settings: mouse, in vivo, iv, 5 mg/kg
Square brackets hold non-standard residues; d marks the D form. Peptide text beside a SMILES is read from it.
The reply should contain only the number, in L/kg.

CC[C@@H](C)[C@@H](NC(=O)[C@@H](C)NC(=O)[C@@H](CC(C)C)NC(C)=O)C(=O)N[C@H](C)C(=O)N[C@@H](C(=O)N[C@H](CCCCN)C(N)=O)C(C)C
1.57

// below: Vd requested for another compound
Looking up CC[C@@H](C)[C@@H](NC(=O)[C@H](NC(=O)[C@@H](CS)NC(=O)[C@H]1CCCN1C(=O)[C@H]1CCCN1C(=O)[C@@H](CCCNC(=N)N)NC(C)=O)C(C)C)C(=O)N[C@H](CC(C)C)C(N)=O [D-RP-7] (Ac-[dR][dP][dP][dC][dV][dI][dL]-NH2) , I see its Vd listed as 1310
